This listing pairs compounds with measured IC50.
Target: GDP-bound KRAS protein (aa 1-169), containing both G12D and C118A amino acid substitutions (Homo sapiens (Human), UniProt P01116, C118A/G12D)
Sequence (P01116 other isoform, or with tags, fused parts or gaps G12D/C118A): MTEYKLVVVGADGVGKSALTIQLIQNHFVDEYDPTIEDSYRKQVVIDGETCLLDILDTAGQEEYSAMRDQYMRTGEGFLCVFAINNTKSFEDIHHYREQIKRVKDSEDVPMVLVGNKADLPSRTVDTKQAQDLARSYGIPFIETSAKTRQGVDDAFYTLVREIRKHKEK
Assay: KRAS G12D Coupled Nucleotide Exchange Assay
Type: biochemical
Settings: read-out: KRAS G12D Coupled Exchange IC50
Where a name gives a salt, the structure may show the parent alone.
ASSAY METRIC: IC50 (nM)

C[C@H]1CCOC[C@H]2CN(CCO2)c2nc(OC[C@@]34CCCN3C[C@H](F)C4)nc3c(F)c(ncc23)-c2c(c(Cl)cc3[nH]ncc23)C1 :: 17
C[C@@]12CCN(C1)c1nc(OC[C@@]34CCCN3C[C@H](F)C4)nc3c(F)c(ncc13)-c1cc(O)cc3ccc(F)c(c13)CCCC(=O)N2 [Example 10, 2,2,2-trifluoroacetate salt] :: 2
C[C@@]12COCCN(C1)c1nc(OC[C@@]34CCCN3C[C@H](F)C4)nc3c(F)c(ncc13)-c1c(c(Cl)cc3[nH]ncc13)CCCOC(=O)O2 :: 2
Cc1cc2[nH]ncc2c2c1[C@H]1C[C@@H]1COC(=O)O[C@@H]1CCCN(C1)c1nc(OC[C@@]34CCCN3C[C@H](F)C4)nc3c(F)c-2ncc13 (racemic) :: 12
O=C1OCCCc2c(Cl)cc3[nH]ncc3c2-c2ncc3c(nc(OC[C@@]45CCCN4C[C@H](F)C5)nc3c2F)N2CCC[C@H](C2)O1 :: 1
